system_under_test: HLA-A*02 (human)
measurement_notes: UV-exchange b2m ELISA
Give measured peptide exchange yield for each item. Keep answers brief.

>>> result("FIFDEAEKL")
"< 20%"
>>> result("FLLGVSKEV")
"50 to 75%"
>>> result("TLFGYSVVL")
"50 to 75%"

Consider now this further binder.
// recorded peptide exchange yield for `ALNPELVQA` : 20 to 49%
